Ref: patent US6359009B1

system: Diabrotica undecimrunctata howardi, 3rd instar southern corn rootworm; experiment: Evaluation against 3rd instar southern corn rootworm, treated talc/soil jar test, mortality after 5 days; format: in vivo, Diabrotica undecimpunctata howardi; details: 50 ppm; mortality rating 0-9 after 5 days in soil
measurement_kind: Southern Corn Rootworm (50 ppm) rating
Give the figure by itself; no unit, no explanation.

(Q) Fill in the blank: the reported Southern Corn Rootworm (50 ppm) rating of `CC(C)SC(C)(C)C(=O)Nc1ccc(C(F)(F)F)cc1` is ____.
(A) 9.0

(Q) // Southern Corn Rootworm (50 ppm) rating lookup, key: CC(C)[S+]([O-])C(C)(C)C(=O)Nc1ccc(C(F)(F)F)cc1 (stereo not drawn)
(A) 9.0

(Q) Consider the compound shown here: `CC(C)/C(=N\O)C(C)(C)C(=O)Nc1ccc(C(F)(F)F)cc1` What is its recorded Southern Corn Rootworm (50 ppm) rating?
(A) 7.0

(Q) Quick one: Southern Corn Rootworm (50 ppm) rating of `CC(C)C(=O)C(C)(C)C(=O)Nc1ccc(C(F)(F)F)cc1` ?
(A) 9.0

(Q) Southern Corn Rootworm (50 ppm) rating lookup needed for CC(=O)OC(C(C)C)C(C)(C)C(=O)Nc1ccc(C(F)(F)F)cc1 (stereo not drawn) , thanks.
(A) 8.3

(Q) Fill in the blank: the reported Southern Corn Rootworm (50 ppm) rating of `CC(C)C(=O)C(C)(C)C(=O)N(C)c1ccc(Cl)cc1` is ____.
(A) 3.5

----------
For each of the compounds below, state its Western Corn Rootworm (10 ppm) rating.
tested on: Diabrotica virgifera virgifera Leconte, 3rd instar western corn rootworm; test: Evaluation against 3rd instar western corn rootworm, treated talc/soil jar test, mortality after 5 days; format: in vivo; conditions: 10 ppm; mortality rating 0-9 after 5 days in soil
Give your answer as a number; write no unit.

(Q) Provide value of Western Corn Rootworm (10 ppm) rating for this record tested with Diabrotica virgifera virgifera Leconte, 3rd instar western corn rootworm: CC(C)C(=O)C(C)(Cl)C(=O)Nc1ccc(C(F)(F)F)cc1 (stereo not drawn)
(A) 0.0

(Q) Short answer please: Western Corn Rootworm (10 ppm) rating, Diabrotica virgifera virgifera Leconte, 3rd instar western corn rootworm, entry C#CCOC(C(C)C)C(C)(C)C(=O)Nc1ccc(C(F)(F)F)cc1 (stereo not drawn)
(A) 9.0

(Q) Notebook entry, Diabrotica virgifera virgifera Leconte, 3rd instar western corn rootworm assay: Western Corn Rootworm (10 ppm) rating of `CC(C)(C)C(=O)C(C)(C)C(=O)Nc1ccc(C(F)(F)F)cc1` = ?
(A) 9.0

(Q) Identify the measured Western Corn Rootworm (10 ppm) rating of `CC(C)OC(C)(C)C(=O)Nc1ccc(C(F)(F)F)cc1` for Diabrotica virgifera virgifera Leconte, 3rd instar western corn rootworm.
(A) 9.0

(Q) Form: Entry = CCCCCCOC(C(C)C)C(C)(C)C(=O)Nc1ccc(C(F)(F)F)cc1 (stereo not drawn) | System = Diabrotica virgifera virgifera Leconte, 3rd instar western corn rootworm | Western Corn Rootworm (10 ppm) rating = ____
(A) 0.0

(Q) Recorded Western Corn Rootworm (10 ppm) rating for `CCOC(C)(C)C(=O)Nc1ccc(C(F)(F)F)cc1` with Diabrotica virgifera virgifera Leconte, 3rd instar western corn rootworm, please?
(A) 3.0

(Q) # get_value(readout= Western Corn Rootworm (10 ppm) rating, system= Diabrotica virgifera virgifera Leconte, 3rd instar western corn rootworm) for CC(C)[S+]([O-])C(C)(C)C(=O)Nc1ccc(C(F)(F)F)cc1 (stereo not drawn)
(A) 0.0

(Q) Tell me reported Western Corn Rootworm (10 ppm) rating for C=CCOC(C(C)C)C(C)(C)C(=O)Nc1ccc(C(F)(F)F)cc1 (stereo not drawn) , tested with Diabrotica virgifera virgifera Leconte, 3rd instar western corn rootworm.
(A) 9.0

(Q) Hello, I am looking for reported Western Corn Rootworm (10 ppm) rating with Diabrotica virgifera virgifera Leconte, 3rd instar western corn rootworm for CC(C)C(OS(C)(=O)=O)C(C)(C)C(=O)Nc1ccc(C(F)(F)F)cc1 (stereo not drawn) . Could you help?
(A) 3.0
